# Tested on: SEM cells
# testProtocol: cell viability relative to DMSO control; higher = less cytotoxic
# measurementContext: HPLM + 10% dialyzed FBS; 48 h; 5.12 µM
experimentalReadout: cell viability (%)
State just the number; it will be interpreted in %.

Previously resolved entries follow.
- C#C[C@]1(O)CC[C@H]2[C@@H]3CCc4cc(O)ccc4[C@H]3CC[C@@]21C: 105
- CNc1nccc(-c2cccnc2Oc2cc(C(=O)Nc3cccc(C(F)(F)F)c3)ccc2C)n1: 109
- Nc1ncnc2c1c(-c1cnc3[nH]ccc3c1)nn2C1CCCC1: 51.1

Challenge: Test system SEM cells; read-out cell viability; what value for `Fc1ccc([C@@H]2CCNC[C@H]2COc2ccc3c(c2)OCO3)cc1` ?
Response given: 103

Challenge: Hi! What's the reported cell viability for `COC(=O)[C@@H]1[C@H]2C[C@H]3c4[nH]c5ccccc5c4CCN3C[C@@H]2CC[C@@H]1O` on SEM cells?
Response given: 116

Challenge: Write down the reported cell viability of `CC(C)C(=O)Oc1ccc(CO)cc1[C@H](CCN(C(C)C)C(C)C)c1ccccc1` , test system: SEM cells.
Response given: 82.3

Challenge: Could you share what cell viability was measured for CC(N)C12CC3CC(CC(C3)C1)C2 (centres undefined) , tested on SEM cells?
Response given: 85.3

Challenge: Provide the documented cell viability with SEM cells as the system for `CCOC(=O)C/1=C(O)/C(=O)N(CC2=CC=CC=C2)C1`
Response given: 111

Challenge: Request - read-out cell viability | tested on SEM cells | molecule `COc1ccc(-c2ccc3c(N4CCOC[C@@H]4C)nc(N4CCOC[C@@H]4C)nc3n2)cc1CO`
Response given: 50.9

====

Measured cell viability of individual entries
# Tested on: SEM cells
# testProtocol: cell viability relative to DMSO control; higher = less cytotoxic
# measurementContext: RPMI 5 mM glucose + 10% dialyzed FBS; 48 h; 0.569 µM
Only the number, expressed in %, is required.

- CCn1c(-c2nonc2N)nc2cnc(Oc3cccc(NC(=O)c4ccc(OCCN5CCOCC5)cc4)c3)cc21: 92.2

Challenge: Name the recorded cell viability for `Cc1cn(-c2cc(NC(=O)c3ccc(C)c(Nc4nccc(-c5cccnc5)n4)c3)cc(C(F)(F)F)c2)cn1` .
Response given: 102

Challenge: Sample `CC(C)C(=O)Nc1ccc([N+](=O)[O-])c(C(F)(F)F)c1` — what was its cell viability?
Response given: 142

Challenge: Could you tell me which cell viability is on file for `COC(=O)[C@@H]1[C@H]2C[C@H]3c4[nH]c5ccccc5c4CCN3C[C@@H]2CC[C@@H]1O` ?
Response given: 119

Challenge: Which value of cell viability has been reported for `CC(C)C(=O)Oc1ccc(CO)cc1[C@H](CCN(C(C)C)C(C)C)c1ccccc1` in the records?
Response given: 97.8

====

# System: NOMO1
# testProtocol: cell viability relative to DMSO control; higher = less cytotoxic
# measurementContext: RPMI 5 mM glucose + 10% FBS; 48 h; 46.1 µM
Listed compounds paired with reported cell viability
Write the answer as a number in %, unit excluded.

• CN(NC(=O)CC(=O)NN(C)C(=S)c1ccccc1)C(=S)c1ccccc1 = 15.8

Challenge: // query cell viability value for entry `COc1ccc(-c2nc(N3CCOCC3)c3sc(CN(C)c4ncc(C(=O)NO)cn4)cc3n2)cn1`
Response given: 6.26

Challenge: Can you look up the measured cell viability of `C[S+]([O-])(=O)C1=CC=C(C=C1)C/2=C(/C(=O)OC2)C3=CC=CC=C3` for me?
Response given: 123

Challenge: Which value of cell viability has been reported for `CN1C[C@H]2c3ccccc3Oc3ccc(Cl)cc3[C@@H]2C1` in the records?
Response given: 85.6

Challenge: Please report the recorded cell viability for `CC(C)C[C@@H](C=O)NC(=O)[C@H](CC(C)C)NC(=O)[C@H](CC(C)C)NC(=O)OCc1ccccc1` .
Response given: 7.38

Challenge: Bench note: what cell viability did `CN(C)C1=CC=C(C=C1)C(C2=CC=C(C=C2)N(C)C)=C/3\C=C/C(/C=C3)=[N+](C)C` show?
Response given: -0.00921
